// data source = paper PMC10823475

assay: PAMPA parallel artificial membrane permeability assay; settings: PAMPA, pH 7.4, PAMPA Papp pH 7.4, donor pH 7.4, 10 µM
Papp at 16 h, 10 μM: recorded values

[[record]]
compound = "CC(=O)N1CCc2ccccc2C1c1ccccc1 (stereo not shown) [Compound 37]"
reading = "> 200 ×10⁻⁶ cm/s"

[[record]]
compound = "CCC(C)CNCC(=O)N1CCc2sccc2C1c1cccc(C)c1 (stereo not shown) [Compound 17]"
reading = "< 4.5 ×10⁻⁶ cm/s"

[[record]]
compound = "CC(C)(C)NCC(O)COc1cccc2c1CC(O)C(O)C2 (stereo not shown) [Nadolol, reference compound]"
reading = "< 0.3 ×10⁻⁶ cm/s"


Now for another entry.
Problem: Which value of Papp at 16 h, 10 μM has been reported for CC(=O)N1CCc2sccc2C1c1ccccc1 (stereo not shown) [Compound 5] in the records?
Solution: > 200 ×10⁻⁶ cm/s
